method summary: Partition coefficient log Po/w by HPLC (OECD 117)
Assay type: physicochemical
cond: HPLC method, OECD 117, methanol:water 3:1
readout kind: chromatographic logP
No unit in the answer, only the number.

Would you please look over these solved cases?
[
  {
    "record smiles": "CCCCOC(=O)c1cc(O)ccc1O",
    "readout kind": "chromatographic logP",
    "observed value": 3.4
  },
  {
    "record smiles": "O=C(OCCc1ccccc1)c1cc(O)ccc1O",
    "readout kind": "chromatographic logP",
    "observed value": 3.1
  },
  {
    "record smiles": "O=C(OC1CCCCC1)c1cc(O)ccc1O",
    "readout kind": "chromatographic logP",
    "observed value": 3.5
  },
  {
    "record smiles": "CCCCCCOC(=O)c1ccc(O)c(O)c1",
    "readout kind": "chromatographic logP",
    "observed value": 3.7
  }
]

Shifting focus to the molecule that follows.
Just so you know, measured chromatographic logP for CCCCCCOC(=O)c1ccc(O)cc1O came out at 5
